assay-text: Toxicokinetics of patidegib and metabolite IPI-230 in plasma after twice daily dermal application for 13 weeks
Format: in vivo, Gottingen Minipig
experimental-context: both sexes, Gottingen, minipig, plasma, topical or ocular, post the first or second dose on Day 1; dermal, minipig plasma; read-out: Individual Tmax
endpoint-name: Tmax

Query block: So what does the record say about Tmax for CC1=C2C[C@H]3[C@@H](CC[C@@H]4C[C@H](NS(C)(=O)=O)CC[C@@]43C)[C@@H]2CC[C@@]2(C1)O[C@@H]1C[C@H](C)CN[C@H]1[C@H]2C ?
Result block: 2 to 8 h

====

assay-text: Toxicokinetics of patidegib and metabolite IPI-230 in plasma after twice daily dermal application for 13 weeks
Type: in vivo, Gottingen Minipig
experimental-context: male, Gottingen, minipig, plasma, topical or ocular, 80 mg/kg/day, Gottingen Minipig plasma, Day 1, Group 4, 80 mg/kg/day dermal twice daily, sex M; read-out: Mean Patidegib AUC0-24
endpoint-name: AUC(0-t)

Query block: So what does the record say about AUC(0-t) for CC1=C2C[C@H]3[C@@H](CC[C@@H]4C[C@H](NS(C)(=O)=O)CC[C@@]43C)[C@@H]2CC[C@@]2(C1)O[C@@H]1C[C@H](C)CN[C@H]1[C@H]2C [patidegib] ?
Result block: 37.7 ng·h/mL
